// data source = PubChem BioAssay AID1566

# Test details: inhibition of NOD2-driven NF-kB reporter – cell-based, luminescence, uHTS, HEK293 (AID 1566)
# Condition context: HEK293 NOD2/NF-kB luciferase reporter, at 4 µM, hits give high values
Among all 290,000 compounds or so, about 1,800 (0.62%) were called active. Only a selection was taken, and actives are over-represented in it overall.
Measured attribute: inhibition (%)
Report only the number, with the unit % understood.

-- ask Which inhibition value is on record for O=C(NC1=NCCS1)C1COc2ccccc2O1 (stereo not drawn) ?
-- reply 63.1

-- ask Which inhibition value is on record for COc1ccc(-c2ncccc2O)cc1 ?
-- reply -2.7

-- ask Which inhibition value is on record for Oc1ccc2ccccc2c1/C=N/c1nccs1 ?
-- reply -2.7

-- ask Which inhibition value is on record for COCCCN=C1NN=C(c2cc(C)n(-c3ccccc3F)c2C)CS1 ?
-- reply -10.1

-- ask Which inhibition value is on record for CC(C)Cn1c(=O)c(C(=O)Nc2ccccc2S(N)(=O)=O)c(O)c2ccccc21 ?
-- reply 22.9

-- ask Which inhibition value is on record for Cc1ccc(OCC(=O)NCCCNC(=O)c2ccc(C)nc2)cc1 ?
-- reply 7.3

-- ask Which inhibition value is on record for Oc1ccc(N=Nc2c(O)ccc3ccccc23)cc1 ?
-- reply 17

-- ask Which inhibition value is on record for COc1ccc(-n2c(-c3ccc(Br)cc3)c[n+]3c2CCc2ccccc2-3)cc1 ?
-- reply 31.4

-- ask Which inhibition value is on record for Cn1c(=O)[nH]c(=O)c2c1nc(NCc1ccccc1)n2Cc1ccc(F)cc1 ?
-- reply 16

-- ask Which inhibition value is on record for CCCn1c(=O)c(C(=O)Nc2cnccn2)c(O)c2ccccc21 ?
-- reply -10.4

-- ask Which inhibition value is on record for COc1ccc(-n2c(C)cc(C3=NNC(=NC4CC4)SC3)c2C)cc1 ?
-- reply -16.5

-- ask Which inhibition value is on record for CCC(C)(C)NC(=O)C1CC(=O)N(CCc2ccc(F)cc2)C1 (stereo not drawn) ?
-- reply 12.1

-- ask Which inhibition value is on record for CCc1ccc(-c2nc(CSCC(=O)NCc3ccco3)c(C)o2)cc1 ?
-- reply 50

-- ask Which inhibition value is on record for CCOc1ccc(-c2nc(CSCC(=O)NCc3ccco3)c(C)o2)cc1 ?
-- reply 9.4

-- ask Which inhibition value is on record for Cn1c(=O)c(C(=O)Nc2cnccn2)c(O)c2ccccc21 ?
-- reply -39.4

-- ask Which inhibition value is on record for CCn1c(=O)c(C(=O)Nc2ccccc2S(N)(=O)=O)c(O)c2ccccc21 ?
-- reply -12.7

* * *

# Test details: inhibition of NOD2-driven NF-kB reporter – cell-based, luminescence, uHTS, HEK293 (AID 1566)
# Condition context: HEK293 NOD2/NF-kB luciferase reporter, at 4 µM, hits give high values
Hit rate of the full screen: of about 290,000 compounds, about 1,800 (0.62%) were called active. The entries come from a sample that favours actives as a whole.
The following molecules are shown together with reported inhibition values.
Report only the number, with the unit % understood.

Solved entries (count: 2):
1) CCOC(=O)N/N=C/c1c(C)nn(-c2ccccc2Cl)c1Cl: -45.5
2) COc1ccc(CC(=O)Nc2ccc(OC)nc2)cc1: 6.1

-- ask Which inhibition value is on record for Cc1ncc(CO)c(CNc2ccc(-c3nc4ccccc4[nH]3)cc2)c1O ?
-- reply -99.7

-- ask Which inhibition value is on record for COc1ccc(NC(=O)C(Cl)=C(Cl)Cl)cn1 ?
-- reply -25.2

-- ask Which inhibition value is on record for CC(C)Cc1ccc(C(C)C(=O)Nc2ccccc2O)cc1 (stereo unspecified) ?
-- reply 22.9

-- ask Which inhibition value is on record for COc1cc(/C=C/C(=O)O)ccc1OCc1ccccc1C#N ?
-- reply 18

-- ask Which inhibition value is on record for O=C(Cn1nnc(N2CCCC2)n1)N/N=C/c1ccc(Cl)cc1 ?
-- reply -2.3

-- ask Which inhibition value is on record for COc1cc(NS(=O)(=O)c2ccc(N/C=C(\C=O)c3nc4ccccc4o3)cc2)nc(OC)n1 ?
-- reply 11

-- ask Which inhibition value is on record for Cc1ncc(CO)c(/C=N/N=C/c2ccccc2O)c1O ?
-- reply -28

-- ask Which inhibition value is on record for Cc1nn(-c2ccccc2Cl)c(Cl)c1/C=N/Nc1nc2ccccc2s1 ?
-- reply 78.1

-- ask Which inhibition value is on record for O=C(O)/C=C/c1ccc(OCc2cccc(F)c2)cc1 ?
-- reply -4.9
